- Study target: BCL2 WT (Homo sapiens (Human), UniProt P10415)
- Sequence (P10415 other isoform, or with tags, fused parts or gaps): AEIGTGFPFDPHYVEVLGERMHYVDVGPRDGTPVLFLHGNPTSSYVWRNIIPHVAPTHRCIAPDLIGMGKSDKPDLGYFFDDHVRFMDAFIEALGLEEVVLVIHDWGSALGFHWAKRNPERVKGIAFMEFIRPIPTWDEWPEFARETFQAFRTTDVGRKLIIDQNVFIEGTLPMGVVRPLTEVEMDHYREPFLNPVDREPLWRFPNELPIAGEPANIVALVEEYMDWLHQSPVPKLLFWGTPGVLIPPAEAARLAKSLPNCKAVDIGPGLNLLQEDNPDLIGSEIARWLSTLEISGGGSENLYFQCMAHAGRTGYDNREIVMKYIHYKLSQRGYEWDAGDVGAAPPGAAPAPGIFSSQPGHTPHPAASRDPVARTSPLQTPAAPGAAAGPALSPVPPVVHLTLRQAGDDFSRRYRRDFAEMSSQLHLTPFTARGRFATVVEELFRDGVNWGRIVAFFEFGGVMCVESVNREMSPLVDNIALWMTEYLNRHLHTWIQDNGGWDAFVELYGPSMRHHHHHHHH
- Method: TR-FRET competitive binding assay, BCL2 WT
- Reported conditions: Ki determined from IC50, read-out: TR_FRET EKI_Bcl2 WT
pKi: −log10 of the molar value.
Result type: pKi

Study these solved cases before continuing.
1) Cc1c(N(C(=O)c2cc(-c3cc4c(cc3C(=O)N3Cc5ccccc5C[C@H]3CN3CCCCC3)CN(C(=O)Cc3ccc(OCCN(C)CCF)cc3F)CC4)n(C)c2C)c2ccc(O)cc2)cc(C#N)n1C [Example 134]    10.22
2) Cc1c(N(C(=O)c2cc(-c3cc4c(cc3C(=O)N3Cc5ccccc5C[C@H]3CN3CCCCC3)CN(C(=O)Cc3ccc(OCC(C)N5CCOCC5)cc3)CC4)n(C)c2C)c2ccc(O)cc2)cc(C#N)n1C (single isomer, unassigned) [Example 128]    10.22
3) Cc1ncc(N(C(=O)c2cc(-c3cc4c(cc3C(=O)N3Cc5ccccc5C[C@H]3CN3CCCCC3)CN(C(=O)Cc3ccc(OCCN5CCOCC5)cc3F)CC4)n(C)c2C)c2ccc(O)cc2)cc1C#N [Example 177]    10.30
4) COCCn1cc(N(C(=O)c2cc(-c3cc4c(cc3C(=O)N3Cc5ccccc5C[C@H]3C)CN(C(=O)Cc3ccc(OCCN5CCOCC5)cc3)CC4)n(C)c2C)c2ccccc2)cn1 [Example 196]    10.52
5) Cc1c(N(C(=O)c2cc(-c3cc4c(cc3C(=O)N3Cc5ccccc5C[C@H]3CN(C)C(C)C)CN(C(=O)Cc3ccc(OCCN5CCOCC5)cc3F)CC4)n(C)c2C)c2ccc(O)cc2)cc(C#N)n1C [Example 91]    10.40

(1) Cc1c(N(C(=O)c2cc(-c3cc4c(cc3C(=O)N3Cc5ccccc5C[C@H]3CN3CCCCC3)CN(C(=O)Cc3ccc(Cl)cc3F)CC4)n(C)c2C)c2ccc(O)cc2)cc(C#N)n1C [Example 44]
(2) Cc1c(N(C(=O)c2cc(-c3cc4c(cc3C(=O)N3Cc5ccccc5C[C@H]3CN3CCCCC3)CN(C(=O)Cc3ccc(OCCN5CCOCC5)cc3F)CC4)n(C)c2C)c2ccccc2)cc(C#N)n1C [Example 92]
Between these two entries, 1 and 2 , state which has the higher pKi. // output: label of the selected item
2

(1) COCCn1cc(N(C(=O)c2cc(-c3cc4c(cc3C(=O)N3Cc5ccccc5C[C@H]3C)CN(C(=O)Cc3ccc(OCCN5CCOCC5)cc3)CC4)n(C)c2C)c2ccc(O)cc2)cn1 [Example 143]
(2) COC[C@@H]1Cc2ccccc2CN1C(=O)c1cc2c(cc1-c1cc(C(=O)N(c3ccc(O)cc3)c3cc(C#N)n(C)c3C)c(C)n1C)CCN(C(=O)Cc1ccc(OCCC3CCOCC3)cc1F)C2 [Example 52]
Decide: 1 or 2 , by lowest recorded pKi. Bench note: the answer is the label of the chosen record.
2

(I) Cc1c(N(C(=O)c2cc(-c3cc4c(cc3C(=O)N3Cc5ccccc5C[C@H]3C)CN(C(=O)Cc3ccc(OCCC5CCOCC5)nc3)CC4)n(C)c2C)c2ccc(O)cc2)cc(C#N)n1C [Example 59]
(II) Cc1c(N(C(=O)c2cc(-c3cc4c(cc3C(=O)N3Cc5ccccc5C[C@H]3CN3CCCCC3)CN(C(=O)Cc3ccc(OCCN5CCOCC5)cc3F)CC4)n(C)c2C)c2ccc(O)cc2)cc(C#N)n1C [Example 43]
Of the two listed items, which has the higher pKi? First: I Second: II Write down the label attached to your selection.
II
(II: 10.40, I: 9.80)

(a) Cc1c(N(C(=O)c2cc(-c3cc4c(cc3C(=O)N3Cc5ccccc5C[C@H]3C)CN(C(=O)Cc3ccc(Oc5ccccc5)cc3)CC4)n(C)c2C)c2ccc(O)cc2)cc(C#N)n1C [Example 10]
(b) Cc1c(N(C(=O)c2cc(-c3cc4c(cc3C(=O)N3Cc5ccccc5C[C@H]3C)CN(C(=O)Cc3ccc(OCCN5CCOCC5)cc3)CC4)n(C)c2C)c2ccc(O)cc2)cnn1C1CCOCC1 [Example 142]
Consider a and b . Which of these has its pKi at a higher number? Answer by stating the label of the chosen item.
b

(I) Cc1c(N(C(=O)c2cc(-c3cc4c(cc3C(=O)N3Cc5ccccc5C[C@H]3CN3CCCCC3)CN(C(=O)Cc3ccc(CCN5CCC(F)(F)CC5)cc3)CC4)n(C)c2C)c2ccc(O)cc2)cc(C#N)n1C [Example 131]
(II) Cc1c(N(C(=O)c2cc(-c3cc4c(cc3C(=O)N3Cc5ccccc5C[C@H]3CN3CCC[C@H](C)C3)CN(C(=O)Cc3ccc(OCCN5CCOCC5)cc3)CC4)n(C)c2C)c2ccc(O)cc2)cc(C#N)n1C [Example 153]
(III) Cc1c(N(C(=O)c2cc(-c3cc4c(cc3C(=O)N3Cc5ccccc5C[C@H]3CN3CCCCC3)CN(C(=O)Cc3ccc(OCCN5CCN(CCF)CC5)cc3F)CC4)n(C)c2C)c2ccc(O)cc2)cc(C#N)n1C [Example 117]
Arrange these 3 compounds in increasing order of pKi. Return value: ordered labels per request.
I, II, III

(a) Cc1c(C(=O)N(c2ccccc2)c2cnn(CCN(C)C)c2)cc(-c2cc3c(cc2C(=O)N2Cc4ccccc4C[C@H]2C)CN(C(=O)Cc2ccc(OCCC4CCOCC4)cc2)CC3)n1C [Example 207]
(b) Cc1c(C(=O)N(c2ccc(O)cc2)c2cnn(C)c2)cc(-c2cc3c(cc2C(=O)N2Cc4ccccc4C[C@H]2C)CN(C(=O)Cc2ccc(OCCC4CCOCC4)cc2)CC3)n1C [Example 85]
Out of a and b , name the one with the higher pKi. Write down the label of the entry you select.
a
(a: 10.70, b: 9.49)
